// provenance: PubChem BioAssay AID652154

- experiment: PAX8 transcriptional activity inhibition in RMG-I – RMG-I cells, luciferase, single concentration, primary screen (AID 652154);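 further: luciferase light reporting Pax8 driven TPO promoter activity; plate controls were median of neutral control wells for no effect and mitoxantrone controls for full effect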
- runConditions: RMG-I TPO-luciferase reporter, SteadyGlo, 24 h; at 12.6 µM; hits give high values
The whole screen tested about 360,000 compounds, of which about 4,200 (1.2%) were called active. The sample as a whole holds a higher share of actives than the screen did.
measureName: inhibition (%)
Write the value in % as a bare number.

{"molecularString": "O=C(C[C@@H]1C[C@@H]2c3cc(NC(=O)C4CCOCC4)ccc3O[C@@H]2[C@@H](CO)O1)NC1CCCCC1", "measureName": "inhibition", "numericValue": 8.24}
{"molecularString": "CC(C)C#Cc1ccc2c(c1)O[C@@H](CN(C)C(=O)Nc1ccccc1)[C@H](C)CN([C@H](C)CO)S2(=O)=O", "measureName": "inhibition", "numericValue": 15.8}
{"molecularString": "C[C@H]1CN([C@@H](C)CO)S(=O)(=O)c2ccc(-c3cccc(C#N)c3)cc2O[C@H]1CN(C)C(=O)c1ccccc1", "measureName": "inhibition", "numericValue": 15.6}
{"molecularString": "C[C@H](NC(=O)C[C@H]1CC[C@H]2[C@@H](COC[C@H](O)CN2C(=O)Nc2cc(Cl)cc(Cl)c2)O1)c1ccccc1", "measureName": "inhibition", "numericValue": 3.71}
{"molecularString": "CCCC#Cc1ccc2c(c1)O[C@@H](CN(C)C(=O)CC)[C@H](C)CN([C@H](C)CO)S2(=O)=O", "measureName": "inhibition", "numericValue": -8.15}

Need inhibition, item `C[C@H]1CN([C@@H](C)CO)S(=O)(=O)c2ccc(C#CCN(C)C)cc2O[C@H]1CN(C)C(=O)c1ccccc1F` -3.76

Recorded inhibition of `CCCC#Cc1ccc2c(c1)O[C@H](CN(C)C(=O)CC)[C@@H](C)CN([C@H](C)CO)S2(=O)=O` , please. -14.1
